B1: TPR t1 (parent)
chain: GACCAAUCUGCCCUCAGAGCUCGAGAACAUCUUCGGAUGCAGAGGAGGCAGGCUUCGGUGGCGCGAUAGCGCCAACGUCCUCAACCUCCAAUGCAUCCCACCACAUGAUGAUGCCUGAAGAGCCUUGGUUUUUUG

# Variants of: B1
# Procedure text: polymerase ribozyme fitness, log enrichment relative to wild type (log ratio); higher = more active; in vitro selection for triplet polymerase activity
Experimental readout: polymerase ribozyme fitness (log ratio)

Give reported polymerase ribozyme fitness (log ratio) value for C8G C70U C80A C94G
-5.61

Give reported polymerase ribozyme fitness (log ratio) value for G71U C82A U116A
-4.01

Give reported polymerase ribozyme fitness (log ratio) value for G57A C72U
-1.29

Give reported polymerase ribozyme fitness (log ratio) value for A121G U133G
1.55

Give reported polymerase ribozyme fitness (log ratio) value for C3U C12U G110A
-0.836

Give reported polymerase ribozyme fitness (log ratio) value for G35A A66C G117U
-5.98

Give reported polymerase ribozyme fitness (log ratio) value for A16U G135U
-1.8

Give reported polymerase ribozyme fitness (log ratio) value for G69U C102U
-1.18

Give reported polymerase ribozyme fitness (log ratio) value for G71A C89U
-0.978

Give reported polymerase ribozyme fitness (log ratio) value for C13A G36C
-1.87

Give reported polymerase ribozyme fitness (log ratio) value for U38G A90U
-1.61

Give reported polymerase ribozyme fitness (log ratio) value for G61A U92G G113U
-4.27

Give reported polymerase ribozyme fitness (log ratio) value for A2U C20U
-3.71

Give reported polymerase ribozyme fitness (log ratio) value for G35C C76G C99G A100C U112A G120A
-6.53

Give reported polymerase ribozyme fitness (log ratio) value for C4G U9G G23A G113C
-4.79

Give reported polymerase ribozyme fitness (log ratio) value for A50U G69A U81A A100C
-4.08

Give reported polymerase ribozyme fitness (log ratio) value for C8U C20U U78C C82G C123U
0.246

Give reported polymerase ribozyme fitness (log ratio) value for A84U U131G
-0.716

Give reported polymerase ribozyme fitness (log ratio) value for U32A A43C G63C
-6.22

Give reported polymerase ribozyme fitness (log ratio) value for G10C C11G C22G C76U
-4.64

Give reported polymerase ribozyme fitness (log ratio) value for A50C A91G C124A U133A
1.25

Give reported polymerase ribozyme fitness (log ratio) value for G44U G69C
-0.825

Give reported polymerase ribozyme fitness (log ratio) value for C34A A121U
-0.134

Give reported polymerase ribozyme fitness (log ratio) value for G77A U112A
0.751

Give reported polymerase ribozyme fitness (log ratio) value for G36U A37U
-1.98

Give reported polymerase ribozyme fitness (log ratio) value for G17A A43G G47U G120C G135C
-2.39

Give reported polymerase ribozyme fitness (log ratio) value for C82G C97A C124A U125G
-5.83

Give reported polymerase ribozyme fitness (log ratio) value for C53G U106G
-2.14

Give reported polymerase ribozyme fitness (log ratio) value for G44A C98U C104U U116C
-4.16

Give reported polymerase ribozyme fitness (log ratio) value for G58U U81A C124A
1.33

Give reported polymerase ribozyme fitness (log ratio) value for C12G A46C G60U U109C
-6.49

Give reported polymerase ribozyme fitness (log ratio) value for A84U C88A
-1.4

Give reported polymerase ribozyme fitness (log ratio) value for C15G C56G G57C C72G C104U U131C
-4.86

Give reported polymerase ribozyme fitness (log ratio) value for C13G C72A C82A U96G A100U C115A
-3.76

Give reported polymerase ribozyme fitness (log ratio) value for A29U G48U C70G C123U
-5.55

Give reported polymerase ribozyme fitness (log ratio) value for C11G A41C U87A G122A
-0.672

Give reported polymerase ribozyme fitness (log ratio) value for U54C C101G
-1

Give reported polymerase ribozyme fitness (log ratio) value for C22A C31G A50C C70G A111C
-7.1

Give reported polymerase ribozyme fitness (log ratio) value for U9C C79U
0.385

Give reported polymerase ribozyme fitness (log ratio) value for U54G C56A U132C
-1.66

Give reported polymerase ribozyme fitness (log ratio) value for G60A G93A A121U
1.81

Give reported polymerase ribozyme fitness (log ratio) value for C12A A18C U112C C124U
-0.619

Give reported polymerase ribozyme fitness (log ratio) value for U32C C49U C53U A75G A83C C99U
-5.45

Give reported polymerase ribozyme fitness (log ratio) value for U81C C124A
0.431

Give reported polymerase ribozyme fitness (log ratio) value for A5U C11G C56U
-0.378

Give reported polymerase ribozyme fitness (log ratio) value for G77U U106C C124A
-3.43
